These measurements were taken from ChEMBL document CHEMBL4680247.

# Measurement notes: Inhibition of quorum sensing in Chromobacterium violaceum CV026 mini-Tn5 mutant after 12 hrs in presence of C6-HSL
pIC50: −log10 of the molar value.
// label = Met if pIC50 is not less than 5, otherwise Not met

>>> group("O=C(CCCSc1ccc(Cl)cc1)NN1CCOC1=O")
"Met"
>>> group("O=C(CCCOc1ccc(Br)cc1)NN1CCOC1=O")
"Met"
>>> group("O=C(CCCOc1cccc(Cl)c1)NN1CCOC1=O")
"Not met"
>>> group("O=C(CCCCOc1ccc(Cl)cc1)NN1CCOC1=O")
"Not met"
>>> group("O=C(CCCOc1cccc(F)c1)NN1CCOC1=O")
"Not met"
>>> group("O=C(CCCOc1ccc([N+](=O)[O-])cc1)NN1CCOC1=O")
"Not met"

---

# System: Pseudomonas aeruginosa
# Measurement notes: Antibacterial activity against Pseudomonas aeruginosa PAO1 planktonic cells assessed as reduction in bacterial growth after 18 hrs by resazurin dye based assay
# Setup conditions: PAO1, 18 h
Listing of entries alongside the reported MIC.
Parameter measured: MIC (µg/mL)

>>> observed_value("O=C(O)c1cn(C2CC2)c2cc(N3CCNCC3)c(F)cc2c1=O [CIPROFLOXACIN]")
0.08
>>> observed_value("CC(C)(O/N=C(\\C(=O)N[C@@H]1C(=O)N2C(C(=O)[O-])=C(C[n+]3ccccc3)CS[C@H]12)c1csc(N)n1)C(=O)O [CEFTAZIDIME]")
1
>>> observed_value("NC[C@H]1O[C@H](O[C@H]2[C@H](O)[C@@H](O[C@H]3O[C@H](CO)[C@@H](O)[C@H](N)[C@H]3O)[C@H](N)C[C@@H]2N)[C@H](N)C[C@@H]1O [TOBRAMYCIN]")
2
>>> observed_value("C[C@@H](O)[C@H]1C(=O)N2C(C(=O)O)=C(S[C@@H]3CN[C@H](C(=O)N(C)C)C3)[C@H](C)[C@H]12 [MEROPENEM]")
0.25
>>> observed_value("NCC[C@H](O)C(=O)N[C@@H]1C[C@H](N)[C@@H](O[C@H]2O[C@H](CN)[C@@H](O)[C@H](O)[C@H]2O)[C@H](O)[C@H]1O[C@H]1O[C@H](CO)[C@@H](O)[C@H](N)[C@H]1O [AMIKACIN]")
4

---

As shown below, each of these compounds has a reported IC50 value.
# Measurement notes: Inhibition of quorum sensing in Chromobacterium violaceum CV026 mini-Tn5 mutant after 12 hrs in presence of C6-HSL
Parameter measured: IC50 (µM)

>>> observed_value("O=C(CCCOc1ccc(F)cc1F)NN1CCOC1=O")
19.6
>>> observed_value("O=C(CCCCCOc1ccc(Cl)cc1)NN1CCOC1=O")
32.8
>>> observed_value("O=C(CCCOc1cc(F)cc(F)c1)NN1CCOC1=O")
61.6
>>> observed_value("CCCCCCCCCC(=O)N[C@H]1CCOC1=O")
0.13
>>> observed_value("O=C(CCCCOc1ccc(F)cc1)NN1CCOC1=O")
23.1
>>> observed_value("O=C(CCCCOc1cccc(F)c1)NN1CCOC1=O")
63.6
>>> observed_value("O=C(CCCOc1ccccc1F)NN1CCOC1=O")
40.9
